- Assay: Human HepG2 cell viability assay in 384 well format
- Format: toxicity, cell-based
- Set-up: dose 125 nL, time 70.5 hour; concentration not given beside the values
- Measurement Conditions: HepG2 cells, read-out: Inhibition

| Compound | cytotoxicity at 70.5 h (%) |
| --- | --- |
| CCn1c(CN(C)CC(=O)N(C)C)nc2c(F)cccc21 | -11.7 |
| CN(C)CCN1CCOCC2(C1)CN(Cc1ccsc1)CCO2 (centres undefined) | -9.68 |
| CC(C)n1nc2c(cc1=O)CN(Cc1nc(-c3ccco3)no1)CC2 | -5.7 |
| CCNc1ccnc(NC2CCN(C(=O)c3ccc(C)cc3)CC2)n1 | -13.3 |
| Cc1cccc(CN2CCC[C@@H]3CN(C(=O)c4ccco4)C[C@@H]32)n1 | -7.63 |
| CCCS(=O)(=O)N1C[C@@H]2CN(Cc3ccoc3)CCO[C@@H]2C1 | 6.66 |
| Cc1cnn(CC2CCCCN2CC(=O)Nc2cccnc2)c1 (centres undefined) | 0.635 |
| COc1ccc(C2CCCN2C(=O)c2cc3c([nH]c2=O)CCC3)cc1 (centres undefined) | -2.02 |
| CCn1c(C)nnc1SCCNc1cc(OC)ncn1 | -18.6 |
| COc1cn(CC(N)=O)c(CSc2nccc(C)n2)cc1=O | 23.4 |
| CC(=O)c1c(F)cccc1N1CCC(Cc2cccnc2)CC1 | 9.22 |
| CS(=O)(=O)c1ccc(Cl)c(NC(=O)NCCC2=CCCCC2)c1 | -8.84 |
| N#Cc1ccc(CNc2cccc(C(=O)N3CCOCC3)c2)cc1 | -9.56 |
| COc1ccc(C(NCc2cccc(C#N)c2)C(C)C)cc1 (centres undefined) | 5.48 |
| CC(=O)N1CCC(n2nccc2-c2cnc(N3CCCC3)nc2)CC1 | -9 |
| Cn1cccc1CN1CCC2(CC1)CCN(C(=O)c1cnccn1)CC2 | 10.8 |
| CCCc1nc(C(=O)N2CCN(C(=O)OC)CC2)cs1 | -4.71 |
| CN(C)CCN(CC1CCCO1)S(=O)(=O)NCc1ccccc1 (centres undefined) | -6.41 |
| Cc1ccc(C(=O)N2CCO[C@H]3[C@H](OCCN(C)C)CC[C@@H]32)cn1 | -1.99 |
| CNC(=O)c1[nH]nc2ccc(I)cc12 | -3.31 |
| Cn1nc(C2CCCN(C(=O)CO)C2)cc1O (centres undefined) | 19.8 |
| CN[C@H]1CC[C@]2(CC1)CNC(=O)c1cc(C)ccc1O2 | -8.44 |
| Cn1nnnc1SC1CCc2ccccc2NC1=O (centres undefined) | -24.7 |
| O=C1COC2(CCN(Cc3nccs3)CC2)CN1c1ccccc1 | 5.28 |
